Parameter log10(IC50): see the listing below.
Molecular target: CDPK1 (Plasmodium falciparum, UniProt P62344)
Sequence (P62344 whole entry): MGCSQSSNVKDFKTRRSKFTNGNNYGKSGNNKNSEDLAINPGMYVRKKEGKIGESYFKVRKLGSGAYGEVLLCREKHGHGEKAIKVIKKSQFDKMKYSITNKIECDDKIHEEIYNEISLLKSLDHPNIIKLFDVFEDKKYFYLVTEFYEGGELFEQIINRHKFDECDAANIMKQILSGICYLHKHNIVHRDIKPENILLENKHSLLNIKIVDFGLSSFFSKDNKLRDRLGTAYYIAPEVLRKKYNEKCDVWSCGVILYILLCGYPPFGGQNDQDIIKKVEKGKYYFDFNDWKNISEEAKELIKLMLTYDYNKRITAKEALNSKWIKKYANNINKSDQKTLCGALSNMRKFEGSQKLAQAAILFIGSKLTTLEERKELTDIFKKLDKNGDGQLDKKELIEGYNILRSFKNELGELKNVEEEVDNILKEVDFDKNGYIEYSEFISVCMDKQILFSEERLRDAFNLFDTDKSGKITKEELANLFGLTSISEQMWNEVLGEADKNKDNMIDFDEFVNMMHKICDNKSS
Assay: biochemical
Type: biochemical
Conditions: Table 2; read-out: Enzyme inhibition IC50, CDPK1
Friendly reminder: values = log10 of IC50, unit µM.

Reported log10(IC50) ( NC1CCC(Nc2ccc3ncc(-c4cnc(Nc5ccccn5)c(F)c4)n3n2)CC1 (stereo not drawn) [Compound 20] ) = -2.10

Reported log10(IC50) ( CC(C)CNc1ncc(-c2cnc3ccc(NC4CCN(C)CC4)nn23)cn1 [Compound 44] ) = -1.19

Reported log10(IC50) ( CN1CCC(CNc2ccc3ncc(-c4cnc(Nc5ncccc5F)nc4)n3n2)CC1 [Compound 38] ) = -2.10

Reported log10(IC50) ( CC(C)CCNc1ccc(-c2cnc3ccc(NC4CCN(C)C4)nn23)cn1 (stereo not drawn) [Compound 22] ) = -1.13

Reported log10(IC50) ( CNc1ccc2ncc(-c3ccc(NCCC(C)C)nc3)n2n1 [Compound 42] ) = -1.09

Reported log10(IC50) ( Fc1cccnc1Nc1ncc(-c2cnc3ccc(NC4CCC(N5CCNCC5)CC4)nn23)cn1 (stereo not drawn) [Compound 28] ) = -1.92
